Property: inhibition at 20 µM; scope: individual compounds
- Tested on: Human rhinovirus (HRV-14)
- experiment summary: Viral ToxGlo assay, Hela Ohio cells
- Assay type: cell-based
- run conditions: M-HeLa, 72 h
parameter measured: inhibition at 20 µM

CC(C)NC(=N)CCNC(=O)c1cc(NC(=O)c2cc(NC(=O)c3ccc(/C=C/c4cnc5ccccc5c4)cc3)cn2C)cn1C | > 50%
Cn1cc(NC(=O)c2ccc(/C=C/c3ccc4nonc4c3)cc2)cc1C(=O)Nc1c[nH]c(C(=O)NCCC(=N)N)c1 | 25 to 50%
CC(C)/N=C(\N)CCNC(=O)c1cc(NC(=O)c2cc(NC(=O)c3ccc(/C=C/c4ccc5nonc5c4)cc3)cn2C)cn1C | 25 to 50%
CN(C)c1ccc(/C=C/c2ccc(C(=O)Nc3c[nH]c(C(=O)Nc4c[nH]c(C(=O)NCCC(=N)N)c4)c3)cn2)cc1 | 25 to 50%
N=C(N)CCNC(=O)c1cc(NC(=O)c2cc(NC(=O)c3ccc(/C=C/c4cnc5ccccc5c4)cc3)c[nH]2)c[nH]1 | > 50%
CN(C)c1ccc(/C=C/c2ccc(C(=O)Nc3c[nH]c(C(=O)Nc4cc(C(=O)NCCC(=N)N)n(C)c4)c3)cn2)cc1 | > 50%
CN(C)c1ccc(/C=C/c2ccc(C(=O)Nc3c[nH]c(C(=O)Nc4c[nH]c(C(=O)NCCN5CCOCC5)c4)c3)cn2)cc1 | 10 to 25%
COCCOCCOCCNC(=O)c1cc(NC(=O)c2cc(NC(=O)c3ccc(/C=C/c4cnc5ccccc5c4)cc3)cn2C)cn1C | 25 to 50%
CC/N=C(\N)CCNC(=O)c1cc(NC(=O)c2cc(NC(=O)c3ccc(/C=C/c4ccc5nonc5c4)cc3)cn2C)cn1C | 10 to 25%
CC(C)=CCC/C(C)=C/CNC(=O)c1cc(NC(=O)c2cc(NC(=O)c3ccc(/C=C/c4cnc5ccccc5c4)cc3)cn2C)cn1C | > 50%

====

- System: Candida glabrata (ACPF3309)
- run conditions: Nakaseomyces glabratus, read-out: MIC99 Candida glabrata
parameter measured: MIC99

N=C(N)CCNC(=O)c1cc(NC(=O)c2cc(NC(=O)c3ccc(/C=C/c4cnc5ccccc5c4)cc3)c[nH]2)c[nH]1 | < 5 µg/mL
O=C(Nc1c[nH]c(C(=O)Nc2c[nH]c(C(=O)NCCN3CCOCC3)c2)c1)c1ccc(/C=C/c2cnc3ccccc3c2)cc1 | > 50 µg/mL
CC[N+](C)(C)CCNC(=O)c1cc(NC(=O)c2cc(NC(=O)c3ccc(/C=C/c4cnc5ccccc5c4)cc3)cn2C)cn1C | 5 to 25 µg/mL
C/N=C(/CCNC(=O)c1cc(NC(=O)c2cc(NC(=O)c3ccc(/C=C/c4ccc5nonc5c4)cc3)cn2C)cn1C)NC | < 5 µg/mL

====

- Tested on: Candida auris (H.17.157)
- run conditions: SI, IC50 (μM)/MIC99 (μg/mL); HEK293 cytotoxicity; Alkyl Amidines and NH Pyrroles
parameter measured: C. auris Selectivity Indices, Group

CN(C)c1ccc(/C=C/c2ccc(C(=O)Nc3c[nH]c(C(=O)Nc4cc(C(=O)NCCC(=N)N)n(C)c4)c3)cn2)cc1 | D (Group D SI > 3)
N=C(N)CCNC(=O)c1cc(NC(=O)c2cc(NC(=O)c3ccc(/C=C/c4cnc5ccccc5c4)cc3)c[nH]2)c[nH]1 | D (Group D SI > 3)
Cn1cc(NC(=O)c2cc(NC(=O)c3ccc(/C=C/c4cnc5ccccc5c4)cc3)c[nH]2)cc1C(=O)NCCC(=N)N | C (Group C 1 < SI <= 3)
COc1ccc(/C=C/c2ccc(C(=O)Nc3cc(C(=O)Nc4cc(C(=O)NCCN5CCOCC5)n(C)c4)n(C)c3)cn2)cc1 [Ref-2, reference compound] | A (Group A: SI < 0.4)
Cn1cc(NC(=O)c2cc(NC(=O)c3ccc(/C=C/c4cnc5ccccc5c4)cc3)cn2C)cc1C(=O)NCCN1CCOCC1 [Ref-3, reference compound] | A (Group A: SI < 0.4)
CN(C)c1ccc(/C=C/c2ccc(C(=O)Nc3cc(C(=O)Nc4c[nH]c(C(=O)NCCC(=N)N)c4)n(C)c3)cn2)cc1 | C (Group C 1 < SI <= 3)

====

- Test system: Blastomyces dermatitidis
- experiment summary: Expanded set of filamentous fungi, MIC broth microdilution (CLSI)
- Assay type: cell-based
- run conditions: isolate BD1, MIC at 50% inhibition
parameter measured: MIC50

[H]/N=C(\CCNC(=O)c1cc(NC(=O)c2cc(NC(=O)c3ccc(C=Cc4ccc(N(C)C)cc4)nc3)cn2C)cn1C)NC [Ia9] | 1 to 8 µg/mL
C/N=C(/CCNC(=O)c1cc(NC(=O)c2cc(NC(=O)c3ccc(/C=C/c4cnc5ccccc5c4)cc3)cn2C)cn1C)NC [Ia10] | 1 to 8 µg/mL
CNC(=N)CCNC(=O)c1cc(NC(=O)c2cc(NC(=O)c3ccc(/C=C/c4cnc5ccccc5c4)cc3)cn2C)cn1C [Ia27] | 1 to 8 µg/mL
C/N=C(\CCNC(=O)c1cc(NC(=O)c2cc(NC(=O)c3ccc(/C=C/c4ccc(N(C)C)cc4)nc3)cn2C)cn1C)NC [Ia8] | 1 to 8 µg/mL

====

- Tested on: C. glabrata
- experiment summary: Expanded set of yeasts, MIC broth microdilution (CLSI)
- Type: cell-based
- run conditions: Nakaseomyces glabratus, isolate CG3; MIC at 50% inhibition
parameter measured: MIC50

C/N=C(\CCNC(=O)c1cc(NC(=O)c2cc(NC(=O)c3ccc(/C=C/c4ccc(N(C)C)cc4)nc3)cn2C)cn1C)NC [Ia8] | 1 to 8 µg/mL
CNC(=N)CCNC(=O)c1cc(NC(=O)c2cc(NC(=O)c3ccc(/C=C/c4cnc5ccccc5c4)cc3)cn2C)cn1C [Ia27] | ≤ 1 µg/mL
C/N=C(/CCNC(=O)c1cc(NC(=O)c2cc(NC(=O)c3ccc(/C=C/c4cnc5ccccc5c4)cc3)cn2C)cn1C)NC [Ia10] | ≤ 1 µg/mL
[H]/N=C(\CCNC(=O)c1cc(NC(=O)c2cc(NC(=O)c3ccc(C=Cc4ccc(N(C)C)cc4)nc3)cn2C)cn1C)NC [Ia9] | 1 to 8 µg/mL

====

Catalogue of MIC80 readings, one per entry.
- Tested on: Staphylococcus aureus (ATCC 43300)
- experiment summary: Antibacterial MIC, broth microdilution (CLSI)
- Assay type: cell-based
- run conditions: Staphylococcus aureus, ATCC43300; read-out: MIC80 S. aureus
parameter measured: MIC80

C/N=C(\CCNC(=O)c1cc(NC(=O)c2cc(NC(=O)c3ccc(/C=C/c4ccc(N(C)C)cc4)nc3)cn2C)cn1C)NC | 5 to 25 µM
CNC(=N)CCNC(=O)c1cc(NC(=O)c2cc(NC(=O)c3ccc(/C=C/c4ccc(C(F)(F)F)cc4)cc3)cn2C)cn1C | < 5 µM
CCCC/N=C(\CCNC(=O)c1cc(NC(=O)c2cc(NC(=O)c3ccc(/C=C/c4ccc(N(C)C)cc4)nc3)cn2C)cn1C)NCCCC | < 5 µM
CN1CCN(CCNC(=N)CCNC(=O)c2cc(NC(=O)c3cc(NC(=O)c4ccc(/C=C/c5cnc6ccccc6c5)cc4)cn3C)cn2C)CC1 | 5 to 25 µM
CC(C)=CCC/C(C)=C/CNC(=O)c1cc(NC(=O)c2cc(NC(=O)c3ccc(/C=C/c4cnc5ccccc5c4)cc3)cn2C)cn1C | 5 to 25 µM
CNC(=N)CCNC(=O)c1cc(NC(=O)c2cc(NC(=O)c3ccc(/C=C/c4cnc5ccccc5c4)cc3)cn2C)cn1C | < 5 µM
[H]/N=C(\CCNC(=O)c1cc(NC(=O)c2cc(NC(=O)c3ccc(C=Cc4ccc(N(C)C)cc4)nc3)cn2C)cn1C)N1CCOCC1 | < 5 µM
CN(C)c1ccc(/C=C/c2ccc(C(=O)Nc3c[nH]c(C(=O)Nc4c[nH]c(C(=O)NCCC(=N)N)c4)c3)cn2)cc1 | 5 to 25 µM
C/N=C(/CCNC(=O)c1cc(NC(=O)c2cc(NC(=O)c3ccc(/C=C/c4cncnc4)cc3)cn2C)cn1C)NC | < 5 µM
COCCOCCOCC[N+](C)(C)CCNC(=O)c1cc(NC(=O)c2cc(NC(=O)c3ccc(/C=C/c4cnc5ccccc5c4)cc3)cn2C)cn1C | < 5 µM
CN1CCN(C(=N)CCNC(=O)c2cc(NC(=O)c3cc(NC(=O)c4ccc(/C=C/c5cnc6ccccc6c5)cc4)cn3C)cn2C)CC1 | < 5 µM
Cn1cc(NC(=O)c2cc(NC(=O)c3ccc(/C=C/c4cnc5ccccc5c4)cc3)cn2C)cc1C(=O)NCCOCCOCCO | 5 to 25 µM
Cn1cc(NC(=O)c2cc(NC(=O)c3ccc(/C=C/c4cnc5ccccc5c4)cc3)cn2C)cc1C(=O)NCCCCN1CCCC1 | 5 to 25 µM
CN(C)c1ccc(/C=C/c2ccc(C(=O)Nc3cc(C(=O)Nc4cc(C(=O)NCCCCN5CCCCC5)n(C)c4)n(C)c3)cn2)cc1 | 5 to 25 µM
